// data source = patent US20260091026A1

Biological target: RIPK2 (KD)/XIAP (BIR2) (Homo sapiens)
Construct: made in house; host or cells: baculovirus-infected Sf9 cells
Sequence (O43353 1-310): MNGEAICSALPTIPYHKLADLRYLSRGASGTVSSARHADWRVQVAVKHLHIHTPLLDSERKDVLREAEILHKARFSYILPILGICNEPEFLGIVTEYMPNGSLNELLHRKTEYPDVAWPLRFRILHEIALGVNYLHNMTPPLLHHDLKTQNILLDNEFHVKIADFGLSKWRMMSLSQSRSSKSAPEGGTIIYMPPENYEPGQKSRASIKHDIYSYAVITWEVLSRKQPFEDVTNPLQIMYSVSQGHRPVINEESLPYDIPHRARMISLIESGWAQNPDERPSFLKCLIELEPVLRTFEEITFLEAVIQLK
Test: RIPK2-XIAP binding competition PPI assay (TR-FRET)
Details: 50 nM of GSK583 = -100% activity, read-out: PPI Amax
Reported Emax is given for each of the following compounds.

Worked cases, Emax given:
`COc1cc2ncc(-c3cc(C(=O)N[C@H](C)c4ccccn4)n(C(C)C)n3)n2cc1S(=O)(=O)C(C)(C)C` yielded Emax of ≥ 80%

`CCn1nc(-c2cnc3cc(OCCO)c(S(=O)(=O)C(C)(C)C)cn23)cc1C(=O)NCc1ccsn1` yielded Emax of ≥ 80%

`COc1cc2ncc(-n3cc(NC(=O)CC4CCCCC4)cn3)n2cc1S(=O)(=O)C(C)(C)C` yielded Emax of ≥ 80%

Continuing:
`C[C@@H](NC(=O)c1cc(-c2cnc3cc(OCCO)c(S(=O)(=O)C(C)(C)C)cn23)nn1C)c1ncccc1F` yielded Emax of ≥ 80%

`COc1cc2ncc(-n3cc(NC(=O)C4CCCCC4)cn3)n2cc1S(=O)(=O)C(C)(C)C` yielded Emax of ≥ 80%

`COc1cc2ncc(-c3cc(C(=O)NC(C)C)n(C)n3)n2cc1S(=O)(=O)C(C)(C)C` yielded Emax of 30 to 55%

`COc1cc2ncc(-c3cc(C(=O)N[C@H](C)c4ncccn4)n(C)n3)n2cc1S(=O)(=O)C(C)(C)C` yielded Emax of ≥ 80%

`COc1cc2ncc(-c3cc(C(=O)NCc4n[nH]c5cccc(F)c45)n(C)n3)n2cc1S(=O)(=O)C(C)(C)C` yielded Emax of ≥ 80%

`COc1cn2ncc(-c3cc(C(=O)N[C@H](C)c4ccccn4)n(C)n3)c2cc1S(=O)(=O)C(C)(C)C` yielded Emax of ≥ 80%

`COc1cc2ncc(-c3cc(NC(=O)OCc4ccccc4)n(C)n3)n2cc1S(=O)(=O)C(C)(C)C` yielded Emax of ≥ 80%

`C[C@@H](NC(=O)c1cc(-c2cnn3cc(OCCO)c(S(=O)(=O)C(C)(C)C)cc23)nn1C)c1ccccn1` yielded Emax of ≥ 80%

`COc1cc2ncc(-c3cc(C(=O)NCc4cnn5ccccc45)n(C)n3)n2cc1S(=O)(=O)C(C)(C)C` yielded Emax of 55 to 80%

`COc1cc2ncc(-c3cc(C(=O)N[C@H](C)c4ccccc4)n(C)n3)n2cc1S(=O)(=O)C(C)(C)C` yielded Emax of ≥ 80%

`C[C@@H](NC(=O)c1cc(-c2cnc3cc(OCCO)c(S(=O)(=O)C(C)(C)C)cn23)nn1C1CC1)c1ncccn1` yielded Emax of ≥ 80%

`COc1cc2ncnc(-c3cc(C(=O)NCc4ccccc4)n(C)n3)c2cc1S(=O)(=O)C(C)(C)C` yielded Emax of ≥ 80%

`COCCn1nc(-c2cnc3cc(OCCO)c(S(=O)(=O)C(C)(C)C)cn23)cc1C(=O)N[C@H](C)c1ncccc1F` yielded Emax of ≥ 80%

`COc1cc2ncc(-n3cc(N(C)C(=O)Cc4ccccc4Cl)cn3)n2cc1S(=O)(=O)C(C)(C)C` yielded Emax of ≥ 80%

`CCn1nc(-c2cnc3cc(OCCO)c(S(=O)(=O)C(C)(C)C)cn23)cc1C(=O)NCc1ncc(C)s1` yielded Emax of ≥ 80%
